Where do these numbers come from? They come from PubChem BioAssay AID1159580.

assay: chemical genetic growth profiling, strain panel (AID 1159580);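 also: tested at 20 µM; growth read once vehicle control cultures reached saturation at 30 °C; 1 = growth at the plate median or of vehicle wells; lower values mean less growth of the strain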; settings: S. cerevisiae deletion strains, growth OD, locus YHR013C, strain ard1, active compounds read low
Out of some 5,500 compounds screened, about 2,000 (36%) were called active. Inconclusive results (about 18%) are left out. This is one part of the list.
Hi! Could you tag entries with normalized growth below 1 as label 1, and those at or above as label 0? Much appreciated.

1) COc1ccc2c(c1)CCC1C2CCC2(C)C1C[C@@H](O)C2O (stereo not given in full)    label 1
2) COc1cc(OC)c2ccc(=O)oc2c1    label 1
3) O=c1ccc2c(O)c3ccoc3cc2o1    label 1
4) C[C@]12CCC3c4ccc(O)cc4CCC3C1C[C@@H](O)[C@@H]2O (stereo not given in full)    label 0
5) CC(=O)OCC1=C(C(=O)O)N2C(=O)[C@@H](NC(=O)Cc3cccs3)[C@H]2SC1    label 0

* * *

test: chemical genetic growth profiling, strain panel (AID 1159580);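 also: tested at 20 µM; growth read once vehicle control cultures reached saturation at 30 °C; 1 = growth at the plate median or of vehicle wells; lower values mean less growth of the strain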; settings: S. cerevisiae deletion strains, growth OD, locus YPR141C, strain kar3
Screen size: about 5,500 compounds; about 2,000 (36%) were called active. Another 18% or so got no clear call; they are omitted. No stated cut-off is given here; in the data, active means normalized growth mostly below about 0.91 (no sharp cut-off); inconclusive means no clear call, values can overlap the other calls; inactive means mostly above about 0.92. Some of the results follow.
Outcomes: active, inactive

1) COc1c(C(C)C)oc2cc3oc(=O)ccc3cc12    inactive
2) CC[n+]1c(-c2ccccc2)c2cc(N)ccc2c2ccc(N)cc21    active
3) Oc1ccc2c(c1)OCC1(O)Cc3cc(O)c(O)cc3C21 (stereo unspecified)    inactive
4) CC1CC[C@]2(NC1)O[C@H]1CC3C4CC[C@H]5C[C@@H](O)CC[C@]5(C)C4CC[C@]3(C)[C@H]1[C@@H]2C (stereo partly specified)    active
5) COc1cc2occc2c2oc(=O)ccc12    inactive
6) CC(=O)OCC1=C(C(=O)O)N2C(=O)[C@@H](NC(=O)Cc3cccs3)[C@H]2SC1    inactive
7) CC1CCC2(OC1)OC1CC3C4CC[C@H]5C[C@@H](O)CC[C@]5(C)C4CC(=O)[C@]3(C)C1C2C (stereo partly specified)    inactive
8) CC(=O)Oc1ccc2c(c1OC(C)=O)OCC1(O)Cc3c(cc(OC(C)=O)c(OC(C)=O)c3OC(C)=O)C21 (stereo unspecified)    inactive
9) COc1ccc2ccc(=O)oc2c1    inactive
10) CCC(N)C(O)c1ccc(O)c(O)c1 (stereo unspecified)    inactive
11) COc1cc(OC)c2ccc(=O)oc2c1    inactive

* * *

experiment: chemical genetic growth profiling, strain panel (AID 1159580);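 also: tested at 20 µM; growth read once vehicle control cultures reached saturation at 30 °C; 1 = growth at the plate median or of vehicle wells; lower values mean less growth of the strain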; settings: S. cerevisiae deletion strains, growth OD, locus YHR079C, strain IRE1, active compounds read low
Hit rate of the full screen: of about 5,500 compounds, about 2,000 (36%) were called active. Another 18% or so got no clear call; they are omitted. This is one part of the list.
property_label: normalized growth

1) CC1CCC2(OC1)OC1CC3C4CC[C@H]5C[C@@H](O)CC[C@]5(C)C4CC(=O)[C@]3(C)C1C2C (stereo partly specified)    0.962
2) Cc1cc(Oc2ccc(C(F)(F)F)cc2NS(C)(=O)=O)cc(C)c1Cl    0.873
3) CC(NC(=S)N/N=C\c1ccccc1O)c1ccccc1 (stereo unspecified)    0.951
4) CCCCOc1cc(C(=O)NCCN(CC)CC)c2ccccc2n1    1.02
5) CCN(Cc1ccncc1)C(=O)C(CO)c1ccccc1 (stereo unspecified)    0.989
6) CC1CC[C@]2(NC1)O[C@H]1CC3C4CC[C@H]5C[C@@H](O)CC[C@]5(C)C4CC[C@]3(C)[C@H]1[C@@H]2C (stereo partly specified)    0.54
7) OCC(O)C(O)C(O)C(O)C(O)CO (stereo unspecified)    0.973
8) CC(=O)OCC1=C(C(=O)O)N2C(=O)[C@@H](NC(=O)Cc3cccs3)[C@H]2SC1    0.976
9) COc1c2ccoc2cc2oc(=O)ccc12    0.801
10) COc1ccc2c(c1)CCC1C2CC[C@@]2(C)C1CC[C@@H]2O (stereo partly specified)    0.872
11) COCCCNC(=S)N/N=C\c1cc(Cl)cc(Cl)c1O    0.903
12) CCCCNC(=S)N/N=C\c1cc(Cl)cc(Cl)c1O    0.601
13) C[C@]12CCC3c4ccc(OS(=O)(=O)O)cc4CCC3C1CC[C@H]2O (stereo partly specified)    0.959
14) CC(=O)O[C@]1(C(C)=O)CCC2C3C=C(Cl)C4=CC(=O)[C@@H]5C[C@@H]5[C@]4(C)C3CC[C@@]21C (stereo partly specified)    1.02
15) COCCCNC(=S)N/N=C\c1cc(Br)ccc1O    0.967
16) O=c1ccc2c(O)c3ccoc3cc2o1    0.985
17) O=C(O)C1=C[C@@H](O)[C@@H](O)[C@H](O)C1    0.972
18) O=C(O[C@@H]1Cc2c(O)cc(O)cc2O[C@@H]1c1cc(O)c(=O)c2c(O)c(O)cc([C@H]3Oc4cc(O)cc(O)c4C[C@H]3O)c2c1)c1cc(O)c(O)c(O)c1    1.03
19) COc1cc(OC)c2ccc(=O)oc2c1    0.989
20) CC/C(=C(/CC)c1ccc(O)cc1)c1ccc(O)cc1    0.96
21) COc1cc2occc2c2oc(=O)ccc12    0.958
22) C[C@]12CCC3c4ccc(O)cc4CCC3C1C[C@@H](O)[C@@H]2O (stereo partly specified)    0.992
23) NC(N)=NC(=O)c1nc(Cl)c(N2CCCCCC2)nc1N    1.06
24) NC(N)=NC(=O)c1nc(Cl)c(N)nc1N    1
25) CC(C)(C)C(=O)NC(=S)N/N=C\c1cc(Cl)cc(Cl)c1O    0.144
26) O=C1[O][Bi][O]c2ccccc21    0.985
27) CN1C[C@H](C(=O)N[C@]2(C)C[C@@]3(O)C4CCCN4C(=O)[C@H](Cc4ccccc4)N3C2=O)C=C2c3cccc4[nH]cc(c34)C[C@H]21 (stereo partly specified)    0.994
28) NC(=O)c1ncn([C@@H]2O[C@H](CO)[C@@H](O)[C@H]2O)n1    0.98
29) COc1ccc2ccc(=O)oc2c1    0.997
30) CCCCCC(=O)Cc1cc(O)cc(O)c1C(=O)Oc1cc(CC(=O)CCCCC)c(C(=O)O)c(OC)c1    0.981
31) OC1(C(F)(F)F)CC(c2ccc3ccccc3c2)=NN1 (stereo unspecified)    0.125
